molecular target: OsSRT1 (Oryza sativa, UniProt B8ARK7); construct: gene SRT1; OsSRT1 gene (483 aa) in pET30a (BamHI/EcoRI), His-tagged, E. coli BL21(DE3), HisTrap purified; tag removal not mentioned; assay: auto-ADP-ribosylation, anti-biotin western blot; format: biochemical
Sequence (B8ARK7 whole entry): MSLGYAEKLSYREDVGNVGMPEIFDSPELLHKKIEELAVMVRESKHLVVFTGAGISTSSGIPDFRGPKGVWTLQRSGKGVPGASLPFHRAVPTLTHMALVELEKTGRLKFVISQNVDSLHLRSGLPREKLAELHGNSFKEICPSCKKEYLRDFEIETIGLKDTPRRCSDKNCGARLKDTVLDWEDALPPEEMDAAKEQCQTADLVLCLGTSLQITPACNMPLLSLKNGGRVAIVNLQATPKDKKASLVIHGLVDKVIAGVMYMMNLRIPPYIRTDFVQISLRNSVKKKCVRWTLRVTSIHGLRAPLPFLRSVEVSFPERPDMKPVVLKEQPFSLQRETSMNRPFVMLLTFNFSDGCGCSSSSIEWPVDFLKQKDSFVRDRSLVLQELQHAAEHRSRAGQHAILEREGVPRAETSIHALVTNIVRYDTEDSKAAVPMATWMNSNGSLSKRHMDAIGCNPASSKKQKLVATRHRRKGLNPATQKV
Measured IC50, listed per entry for reference.
observed.property: IC50 (µM)

>>> print(df.to_string())
                          molecule  observed_property  unit_string  result_number
0    NC(=O)c1cccnc1 [nicotinamide]               IC50           µM             26
1  O=C(O)c1cccnc1 [nicotinic acid]               IC50           µM             32
